Test system: Rhizoctonia solani
Assay: Antifungal activity against Rhizoctonia solani after 3 days by well diffusion assay
Assay type: functional
Conditions: 72 h
What MIC was measured for each of the following?
Param answer (str): number followed by unit.

If you can, please state the reported MIC value of CCn1c2ccc3cc2c2cc(ccc21)CSc1ccccc1NC(=O)COc1ccc2ccccc2c1-c1c(ccc2ccccc12)OCC(=O)Nc1ccccc1SC3 . 20 µg/mL

Can you share its MIC? I mean this compound: CCn1c2ccc3cc2c2cc(ccc21)CSc1ccccc1NC(=O)c1ccc(cc1)OCc1ccccc1COc1ccc(cc1)C(=O)Nc1ccccc1SC3 40 µg/mL

Tell me the measured MIC of CCn1c2ccc3cc2c2cc(ccc21)CSc1ccccc1NC(=O)COc1cccc(c1)OCC(=O)Nc1ccccc1SC3 , please. 50 µg/mL

# context switch: different compound, same MIC
Reported MIC, compound CCn1c2ccc3cc2c2cc(ccc21)CSc1ccccc1NC(=O)c1cccc(c1)C(=O)Nc1ccccc1SC3 : ____ 30 µg/mL

----------
Tested on: Alternaria alternata
Assay: Antifungal activity against Alternaria alternata after 3 days by well diffusion assay
Format: functional
Settings: 72 h
ATTRIBUTE MEASURED: MIC

Guide cases for MIC, answers given:
// query MIC value for entry CCn1c2ccc3cc2c2cc(ccc21)CSc1ccccc1NC(=O)COc1ccc2ccccc2c1-c1c(ccc2ccccc12)OCC(=O)Nc1ccccc1SC3 10 µg/mL

Consider the molecule shown here: CCn1c2ccc3cc2c2cc(ccc21)CSc1ccccc1NC(=O)COc1cccc(c1)OCC(=O)Nc1ccccc1SC3 What is its recorded MIC? 25 µg/mL

# evaluate next
Quick check: MIC of COC(=O)Nc1nc2ccccc2[nH]1 ? 12 µg/mL

----------
Tested on: Alternaria alternata
Assay: Antifungal activity against Alternaria alternata after 3 days by well diffusion assay
Assay type: functional
Conditions: 72 h
Assignment: determine reported MIC for the given molecules.
Give bare numbers, in µg/mL.

Recall the recorded MIC for CCn1c2ccc3cc2c2cc(ccc21)CSc1ccccc1NC(=O)c1ccccc1-c1ccccc1C(=O)Nc1ccccc1SC3 with Alternaria alternata and state it. 25

API: value(readout= MIC, system= Alternaria alternata, query= CCn1c2ccc3cc2c2cc(ccc21)CSc1ccccc1NC(=O)c1cccc(n1)C(=O)Nc1ccccc1SC3 ) 15

Reported MIC for Alternaria alternata, given CCn1c2ccc3cc2c2cc(ccc21)CSc1ccccc1NC(=O)c1cccc(c1)C(=O)Nc1ccccc1SC3 ? 15

Others:
What is its MIC for Alternaria alternata? Entry: CCn1c2ccc3cc2c2cc(ccc21)CSc1ccccc1NC(=O)c1ccc(cc1)OCc1ccccc1COc1ccc(cc1)C(=O)Nc1ccccc1SC3 15

----------
Test system: Rhizoctonia solani
Assay: Antifungal activity against Rhizoctonia solani after 3 days by well diffusion assay
Assay type: functional
Conditions: 72 h
ATTRIBUTE MEASURED: MIC (mg/L)
Answers are plain numbers, in mg/L.

Value lookup for MIC; key = COC(=O)Nc1nc2ccccc2[nH]1 [CARBENDAZIM] 25

Report MIC for CCn1c2ccc3cc2c2cc(ccc21)CSc1ccccc1NC(=O)c1ccccc1-c1ccccc1C(=O)Nc1ccccc1SC3 please. 20

Continuing:
Reported MIC, compound CCn1c2ccc3cc2c2cc(ccc21)CSc1ccccc1NC(=O)c1cccc(n1)C(=O)Nc1ccccc1SC3 : ____ 20

These data points were gathered from ChEMBL document CHEMBL1152480.
